Experiment: qHTS assay to identify small molecule antagonists of the estrogen receptor alpha (ER-alpha) signaling pathway using the BG1 cell line - cell viability counter screen (AID 743081);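 also: compound given together with 17beta-estradiol as the ER stimulus; nearly all actives have a fitted effect of over 45% in size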
Details: BG1Luc4E2 viability, CellTiter-Fluor, 22 h; series mostly up to 70.3 µM
Inconclusive results are not listed. The source made the active and inactive calls. Calls follow the shape of the dose curve; as a rule, active = well fitted cell-killing curve with a large enough effect in the repeat runs; inconclusive = weak or mixed curves, or effect the other way; inactive = flat fitted curve, though single readings scatter.
Assign a class; possible classes are active, inactive

Exercise: State the result this test recorded for C=C[C@]1(C)C[C@@H](OC(=O)CSC(C)(C)CNC(=O)[C@H](N)C(C)C)[C@]2(C)[C@H](C)CC[C@]3(CCC(=O)[C@H]32)[C@@H](C)[C@@H]1O .
Key: active

Exercise: State the result this test recorded for NC[C@@H]1O[C@H](O[C@H]2[C@@H](O)[C@H](O[C@@H]3[C@@H](O)[C@H](N)C[C@H](N)[C@H]3O[C@H]3O[C@H](CO)[C@@H](O)[C@H](O)[C@H]3N)O[C@@H]2CO)[C@H](N)[C@@H](O)[C@@H]1O .
Key: inactive

Exercise: State the result this test recorded for Cc1nc(NS(=O)(=O)c2ccc(N)cc2)nc(C)c1Br .
Key: inactive
